// values below are reported protein stability index
B1: WDR88 (parent)
chain: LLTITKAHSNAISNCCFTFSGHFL

# Variants of: B1
# assay info: protein stability index of a GFP-peptide fusion (GPS, HEK-293T) (PSI 1-6); higher = more stable;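 further: lentivirally expressed fusions sorted by FACS into six bins by GFP to DsRed ratio, PSI derived from sequencing read proportions per bin multiplied by bin number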
# conditions: c terminus: a fixed tail appended
API note: the answer field is a bare number with no unit suffix.

primary sequence	protein stability index
LLTITKAHSNAISNCCCTFSGHFL [F17C]	1.84
LLTITKAHSAAISNCCFTFSGHFL [N10A]	2.64
LLTITKAGSNAISNCCFTFSGHFL [H8G]	3.56
LLTITKGHSNAISNCCFTFSGHFL [A7G]	3.76

Would you kindly look at the next entry?
QUERY: If you can, please state the reported protein stability index value of LLTITKANSNAISNCCFTFSGHFL [H8N] .
RESULT: 2.03
